test system: BT-549 breast; experiment: NCI tumour cell line growth inhibition, 48 h
Here, each record is paired with measured TGI data.

| MOLECULE | TGI |
| --- | --- |
| NC(=O)N/N=C(\Cc1nc2ccc(Cl)cc2[nH]c1=O)C(=O)Nc1ccc(Cl)cc1Cl | > 100 µM |
| COc1ccc(-n2c(=O)c3[nH]cnc3n(-c3ccc(OC)cc3)c2=S)cc1 | > 100 µM |
| Cc1ccc(C(=O)Nc2ccc(CP(=O)(O)O)cc2CP(=O)(O)O)cc1NC(=O)c1cccc(N)c1 | > 100 µM |
| COc1ccc(N2C(=O)C3c4[nH]c5ccc(OCc6ccccc6)cc5c4C4CCC(C(C)(C)C)CC4C3C2=O)cc1 (stereo not given) | > 100 µM |
| OCCCCCNc1c2ccccc2nc2ccccc12 | 25.3 µM |
| Brc1ccc(CCNCCN2CCCCC2)cc1 | 29.4 µM |
| COc1cccc(-c2cc(=O)c3ccccc3o2)c1N | > 100 µM |
| CC1OC(n2cc(F)c(=O)[nH]c2=O)CCC1O (stereo not given) | > 100 µM |
| O=C(/C=C/c1ccc(O)c([N+](=O)[O-])c1)CC(=O)/C=C/c1ccc(O)c([N+](=O)[O-])c1 | > 100 µM |
| CSc1cc(N=Nc2nc3ccccc3s2)c2ccccc2c1O | 14 µM |

====

tested on: OVCAR-8 ovarian; assay: NCI tumour cell line growth inhibition, 48 h
PROPERTY: TGI

| MOLECULE | TGT | PROPERTY | OBSERVED |
| --- | --- | --- | --- |
| CCCCC(=O)OCC1OC(n2cnc3c(=S)nc[nH]c32)C(OC(=O)CCCC)C1OC(=O)CCCC (stereo not given) | OVCAR-8 ovarian | TGI | > 100 µM |
| CC1OC(O[C@H]2C[C@@H](O)[C@]3(CO)[C@H]4[C@H](O)C[C@]5(C)[C@@H](C6=CC(=O)OC6)CC[C@]5(O)[C@@H]4CC[C@]3(O)C2)C(O)C(O)C1O (stereo not given in full) | OVCAR-8 ovarian | TGI | 34.8 µM |
| Nc1ccc2nc(-c3ccccn3)c(-c3ccccn3)nc2c1 | OVCAR-8 ovarian | TGI | > 100 µM |
| COC(=O)C1C(C(=O)OC)N(Cc2ccccc2)C(=O)N1Cc1ccccc1 (stereo not given) | OVCAR-8 ovarian | TGI | > 100 µM |
| Cc1cc2c(cc1C)[n+](=O)c(C(=O)CC(=O)C(=O)Nc1c(C(C)C)cccc1C(C)C)c(C)n2[O-] | OVCAR-8 ovarian | TGI | > 100 µM |
| N#Cc1ccc(C#Cc2ccccc2C#CCCCCO)cc1 | OVCAR-8 ovarian | TGI | 35.5 µM |
| CN(CCC#N)c1ccc(/C=C2\SC(=S)NC2=O)cc1 | OVCAR-8 ovarian | TGI | > 100 µM |
| CC(C)(N=NC(C)(C)C(=O)NCCO)C(=O)NCCO | OVCAR-8 ovarian | TGI | > 100 µM |
| COc1ccccc1Nc1nc(N)nc(N)c1N=O | OVCAR-8 ovarian | TGI | > 100 µM |
| COC(=O)C(CCC#N)(CCC#N)C(=O)OC | OVCAR-8 ovarian | TGI | > 100 µM |

====

system: MDA-MB-435; assay: NCI tumour cell line growth inhibition, 48 h
List of TGI values.

| COMPOUND | TGI |
| --- | --- |
| O=C1/C(=C/c2ccc(Cl)cc2Cl)N=C(c2ccccc2)N1Cc1ccco1 | > 100 µM |
| O=C(O)CCCCC(CCSCc1ccccc1)SCc1ccccc1 (stereo unspecified) | > 100 µM |
| CN(C)/N=N/c1nc2c(c(=O)n(C)c(=O)n2C)n1C | > 100 µM |
| O=C1/C(=C/c2ccc(Br)cc2)C=C(c2ccccc2)N1CCc1ccccc1 | > 100 µM |
| N#Cc1ccc(C#Cc2ccccc2C#CCCCCO)cc1 | 35.6 µM |
| Nc1ccc2nc(-c3ccccn3)c(-c3ccccn3)nc2c1 | > 100 µM |
| CC1=C(CCCNS(C)(=O)=O)C2=C(C)C3(CC3)[C@@](C)(O)C(=O)C2=C1 | 5.41 µM |
| CCOC(=O)c1csc(NC(=O)CCN(CC)CC)n1 | > 100 µM |
| CC(C)OP(=O)(OC(C)C)c1c(Nc2ccccc2)n[nH]c1N | > 100 µM |
| Cc1cc(N(CCC#N)CCC#N)ccc1/C=N/NC(=O)c1cc(Cl)ccc1O | > 100 µM |
| C=CCN1C(=O)/C(=C/c2ccccc2)N=C1SC1OC(COC(=O)c2ccccc2)C(OC(=O)c2ccccc2)C1OC(=O)c1ccccc1 (stereo unspecified) | > 100 µM |
| Cc1nn(CN2CCN(C)CC2)c(=S)n1/N=C/c1cccc2ccccc12 | 43 µM |
| CSc1ccc(C2=NN(C(C)=O)C(c3cc(C)cs3)C2)cc1 (stereo unspecified) | > 100 µM |
| O=C1NNC=Nc2ccc(cc2)S(=O)(=O)c2ccc(cc2)N=CNNC1=O | > 100 µM |
| CCN(CC)CCc1c2c(nc3ccccc13)C(=O)c1cccnc1C2=O | 4.99 µM |
| C=C1CC(COc2cc(=O)oc3ccccc23)(c2ccccc2)OC1=O (stereo unspecified) | 11 µM |
| CCCCC(=O)OCC1OC(n2cnc3c(=S)nc[nH]c32)C(OC(=O)CCCC)C1OC(=O)CCCC (stereo unspecified) | > 100 µM |
| N#CSCC1CC(O)(c2ccccc2)C(c2ccccc2)C(c2ccc(Cl)cc2)O1 (stereo unspecified) | 2.88 µM |
| OC1C2[C@@H](O)CCCN2C[C@@H](O)[C@H]1O (stereo partly specified) | > 100 µM |
| CC1CCC2(C(=O)O)CCC3(C)C(=CCC4C5(C)CC(O)C(O)C(C)(CO)C5C(O)CC43C)C2C1C (stereo unspecified) | > 100 µM |
| Cc1ccc(C(=O)Nc2ccc(CP(=O)(O)O)cc2CP(=O)(O)O)cc1NC(=O)c1cccc(N)c1 | > 100 µM |

====

system: MOLT-4 leukemia; assay: NCI tumour cell line growth inhibition, 48 h
Items are presented alongside their recorded GI50.

| MOLECULE | GI50 |
| --- | --- |
| O=C1/C(=C/c2ccc(Cl)cc2Cl)N=C(c2ccccc2)N1Cc1ccco1 | 25.8 µM |
| CCOC(=O)/C=C(/C(=O)OCC)n1cc(Cl)c(=O)n(CC(=O)OCC)c1=O | 3.29 µM |
| CSc1ccc(C2=NN(C(C)=O)C(c3cc(C)cs3)C2)cc1 (configuration not stated) | 7.26 µM |
| CN(C)CCNc1cc(-c2ccccc2)nc2ccccc12 | 3.27 µM |
| N#Cc1ccc(C#Cc2ccccc2C#CCCCCO)cc1 | 17.8 µM |
| CC1=C(C(=O)Nc2ccc3[nH]ncc3c2)C(c2ccc3ccccc3c2)CC(=O)N1 (configuration not stated) | > 25 µM |
| CCCCC(=O)OCC1OC(n2cnc3c(=S)nc[nH]c32)C(OC(=O)CCCC)C1OC(=O)CCCC (configuration not stated) | 5.74 µM |

====

test system: SNB-75 CNS; test: NCI tumour cell line growth inhibition, 48 h; in the data active means GI50 below about 0.43 µM; inactive means the rest
Outcomes: active, inactive

| MOLECULE | CLASS_LABEL |
| --- | --- |
| CCNCCNc1cc(-c2ccc(C(=O)OC)cc2)c(C#N)c2nc3ccccc3n12 | inactive |
| Cn1c(N2NC(=O)C(N=Nc3ccc(S(N)(=O)=O)cc3)C2=O)nc(-c2ccco2)c(C#N)c1=O (configuration not stated) | inactive |
| O=C(Nc1ccc(N2CCNCC2)cc1)c1[nH]ncc1Nc1cc(Oc2ccccc2)ncn1 | inactive |
| O=[N+]([O-])/C=C\c1ccc(Cl)c(Cl)c1 | inactive |
| Cc1ccc2c(c1)C(=O)/C(=C/c1ncc([N+](=O)[O-])n1C)O2 | inactive |
| CC[CH2][Pb]([CH2]CC)([CH2]CC)[O]C(=O)C(F)(F)F | active |
| COc1ccc2[nH]c(O)c(/C=c3/cc4c(c(-c5cc(OC)c(OC)c(OC)c5)n3)=Nc3ccccc3-4)c2c1 | inactive |
| Cn1cc(-c2cnc3ccc(NC(=O)Nc4ccc(F)c(Br)c4)cc3n2)cn1 | inactive |
| CC1=C(CCCNS(C)(=O)=O)C2=C(C)C3(CC3)[C@@](C)(O)C(=O)C2=C1 | active |
| CCc1c(Oc2ccc(C(C)=O)cc2)c2ccccc2[nH]c1=O | inactive |
| Nc1ccn(C2O[C@H](CO)[C@@H](O)[C@@H]2O)c(=O)n1 (some centres not stated) | inactive |
| COc1cc(OC)cc(-c2ccc(-c3ccc(C(=N)N)o3)o2)c1 | inactive |

====

system: SK-MEL-28 melanoma; test: NCI tumour cell line growth inhibition, 48 h
PROPERTY: GI50

| COMPOUND | PROPERTY | OBSERVED |
| --- | --- | --- |
| Cc1ccc2c(c1)C(=O)/C(=C/c1ncc([N+](=O)[O-])n1C)O2 | GI50 | 2.34 µM |
| O=[N+]([O-])/C=C\c1ccc(Cl)c(Cl)c1 | GI50 | 2.48 µM |
| CC1=C(CCCNS(C)(=O)=O)C2=C(C)C3(CC3)[C@@](C)(O)C(=O)C2=C1 | GI50 | 1.94 µM |
| O=C(CI)NC1Oc2ccccc2-c2oc(=O)c(-c3ccccc3)cc21 (stereo not given) | GI50 | 1.81 µM |
| CC1OC(O[C@H]2C[C@@H](O)[C@]3(CO)[C@H]4[C@H](O)C[C@]5(C)[C@@H](C6=CC(=O)OC6)CC[C@]5(O)[C@@H]4CC[C@]3(O)C2)C(O)C(O)C1O (stereo not given in full) | GI50 | 21.7 µM |
| Cc1ccc(-c2c3c([nH]c(=O)c2C#N)-c2cc(F)ccc2OC3)cc1 | GI50 | > 100 µM |
| CC(C)CC(=O)[O-].CC(C)CC(=O)[O-].N.N.N.N.[Co+3].[O-][Cl+3]([O-])([O-])[O-] | GI50 | > 100 µM |
| COc1ccc(/C(=C2\O[C@@H]([C@H]3COC(C)(C)O3)[C@H]3OC(C)(C)O[C@@H]23)c2cc(OC)c(OC)c(OC)c2)cc1O | GI50 | 5.45 µM |
| CN(C)CCNc1cc(-c2ccccc2)nc2ccccc12 | GI50 | 13.4 µM |
| CC1=C(C(=O)Nc2ccc3[nH]ncc3c2)C(c2ccc3ccccc3c2)CC(=O)N1 (stereo not given) | GI50 | > 22.2 µM |
